Target: T1, hu-CD74 antigen (R&D SYSTEMS catalog #3590-CD-050) (human, UniProt P04233-2 73-232, limits assumed)
T1 construct: Bought antigen; also called rhCD74; human CD74
T1 sequence (looked up): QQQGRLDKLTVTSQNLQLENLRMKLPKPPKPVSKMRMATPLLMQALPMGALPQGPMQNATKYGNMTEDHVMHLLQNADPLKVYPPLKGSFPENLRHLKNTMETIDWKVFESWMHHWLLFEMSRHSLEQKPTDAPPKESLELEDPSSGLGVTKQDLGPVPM
Experiment: SPR (Biacore T200), IgG captured on anti-human Fc, rhCD74 analyte
observedProperty: koff (s⁻¹)
Express your answer in s⁻¹, writing the number without its unit.

Examples with their reported koff follow.
* HC 1251_B08 (g)/LC 1337_A10 (g) (antibody, human IgG1, kappa, V domains shown, IgG format) VH: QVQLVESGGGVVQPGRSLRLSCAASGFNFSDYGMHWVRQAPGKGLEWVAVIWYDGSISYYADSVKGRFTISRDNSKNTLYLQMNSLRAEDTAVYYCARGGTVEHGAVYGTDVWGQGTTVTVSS VL: DIQMTQSPSSVSASVGDRVTITCRASQGISSWVAWYQQKPGKAPKLLIYGSSRLQSGVPSRFSGSGSGTDFTLTISSLQPEDFATYYCQQYNTYPLTFGGGTKVEIKR | 9.97e-05
* HC 1251_B08 (g)/LC 1337_A07 (g) (antibody, human IgG1, kappa, V domains shown, IgG format) VH: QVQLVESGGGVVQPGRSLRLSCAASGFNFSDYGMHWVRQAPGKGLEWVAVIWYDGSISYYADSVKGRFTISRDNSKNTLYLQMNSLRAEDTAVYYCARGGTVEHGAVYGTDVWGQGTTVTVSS VL: DIQMTQSPSSVSASVGDRVTITCRASQGISSWVAWYQQKPGKAPKLLIYGASRLQSGVPSRFSGSGSGTDFTLTISSLQPEDFATYYCQQYHTYPLTFGGGTKVEIKR | 7.76e-05

Could you now consider this next binder?
For HC 1251_A06 (wt)/LC 1337_A09 (wt) (antibody, human IgG1, kappa, V domains shown, IgG format) VH: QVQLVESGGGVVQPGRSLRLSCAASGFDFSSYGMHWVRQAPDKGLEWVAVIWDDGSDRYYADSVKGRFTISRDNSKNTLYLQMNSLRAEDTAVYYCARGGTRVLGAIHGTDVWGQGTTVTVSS VL: DIQMTQSPSSLSASVGDRVTITCRASQGIGSWLAWYQQKPEKAPKSLIYAADRLQSGVPSRFSGSGSGTDFTLTISSLQPEDFATYYCQQYHTYPLTFGGGTKVEIKR , what is its reported koff? 9.19e-05
